Reference for the values: ChEMBL document CHEMBL1201862

# Tested on: Malme-3M
# assay-method-text: NCI tumour cell line growth inhibition, 48 h
The source made the active and inactive calls. No stated cut-off is given here; in the data, active = GI50 up to about 1.1 µM and inactive = higher.
measured-attribute: GI50

INPUT: Query for Malme-3M: what GI50 does the record show for O=C1/C(=C/c2cccc(F)c2)CCCc2ccccc21 ?
OUTPUT: 11.6 µM (inactive)

INPUT: Query for Malme-3M: what GI50 does the record show for CC1=CC=C2c3ccccc3C=CN2C(=O)C1 ?
OUTPUT: > 100 µM (inactive)

INPUT: Query for Malme-3M: what GI50 does the record show for C[N+](C)(C)CC(=O)NC(=O)N/N=C\C(CC#N)CN(Cc1ccccc1)Cc1ccccc1 (stereo not given) ?
OUTPUT: 58.2 µM (inactive)

INPUT: Query for Malme-3M: what GI50 does the record show for C(=N\NC1=NCCN1)/c1ccc(-c2cn3cc(/C=N/NC4=NCCN4)ccc3n2)cc1 ?
OUTPUT: 2.82 µM (inactive)

INPUT: Query for Malme-3M: what GI50 does the record show for CN1C(=O)[C@H](c2c[nH]c3ccccc23)[C@H](c2c[nH]c3ccccc23)C1=O ?
OUTPUT: 36.5 µM (inactive)
